experimentalTarget: T1, Peptide A (human PAR-2), unbiotinylated (Human)
T1 construct: also called Peptide A No Biotin
T1 peptide: GTNRSSKGRSLIGKVDGT
assayProcedure: SPR, antibody captured
Protocol: Equilibrium dissociation constants (KD values) for antigen binding to selected purified PAR-2 antibodies were determined by surface kinetics using a real-time surface plasmon resonance biosensor assay. […] Antigen-antibody binding and dissociation were monitored in real time at room temperature. […] ND: not determined.
Threshold 50 min: T1/2 strictly smaller gives 1, otherwise 0.

Example results:
INSERT INTO measurements (binder, assignedcategory) VALUES
  ('H2M591N (antibody, V domains shown, chimeric: human variable, mouse constant domains) VH: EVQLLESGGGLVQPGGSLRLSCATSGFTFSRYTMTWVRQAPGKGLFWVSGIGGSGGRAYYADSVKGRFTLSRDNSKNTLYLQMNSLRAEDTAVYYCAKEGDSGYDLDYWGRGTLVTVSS VL: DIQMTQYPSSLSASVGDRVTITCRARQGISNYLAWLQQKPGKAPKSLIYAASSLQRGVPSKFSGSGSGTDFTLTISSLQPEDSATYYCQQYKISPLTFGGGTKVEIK', 1),
  ('H2M588N (antibody, V domains shown, chimeric: human variable, mouse constant domains) VH: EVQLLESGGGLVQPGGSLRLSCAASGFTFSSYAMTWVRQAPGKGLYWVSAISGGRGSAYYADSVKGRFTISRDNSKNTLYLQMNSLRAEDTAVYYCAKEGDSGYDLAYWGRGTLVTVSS VL: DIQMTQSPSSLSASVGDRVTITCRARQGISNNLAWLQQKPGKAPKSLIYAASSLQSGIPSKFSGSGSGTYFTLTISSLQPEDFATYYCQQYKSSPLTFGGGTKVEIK', 0),
  ('H4H584P (antibody, human IgG4, V domains shown, also called H1H584P variable regions) VH: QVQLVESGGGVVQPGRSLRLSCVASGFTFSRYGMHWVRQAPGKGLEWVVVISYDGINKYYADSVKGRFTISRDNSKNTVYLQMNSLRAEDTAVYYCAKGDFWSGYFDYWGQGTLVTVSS VL: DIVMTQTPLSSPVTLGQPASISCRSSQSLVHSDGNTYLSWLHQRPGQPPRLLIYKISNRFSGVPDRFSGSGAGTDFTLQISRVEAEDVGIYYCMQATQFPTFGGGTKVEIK', 1);

**Query** # strict comparison: is reported T1/2 < 50 min? input = H4H583P (antibody, human IgG4, V domains shown, also called H1H583P variable regions) VH: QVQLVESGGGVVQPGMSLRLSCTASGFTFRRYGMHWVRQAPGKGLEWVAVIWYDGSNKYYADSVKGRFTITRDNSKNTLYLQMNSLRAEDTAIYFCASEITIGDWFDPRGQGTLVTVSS VL: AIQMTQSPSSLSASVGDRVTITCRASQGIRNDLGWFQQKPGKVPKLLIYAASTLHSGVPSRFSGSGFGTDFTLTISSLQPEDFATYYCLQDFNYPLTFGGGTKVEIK
**Result** 1

**Query** Please do the same for H2M611N (antibody, V domains shown, chimeric: human variable, mouse constant domains) VH: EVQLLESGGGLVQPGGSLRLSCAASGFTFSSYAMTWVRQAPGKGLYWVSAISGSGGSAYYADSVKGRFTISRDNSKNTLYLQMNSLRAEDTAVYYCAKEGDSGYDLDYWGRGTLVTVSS VL: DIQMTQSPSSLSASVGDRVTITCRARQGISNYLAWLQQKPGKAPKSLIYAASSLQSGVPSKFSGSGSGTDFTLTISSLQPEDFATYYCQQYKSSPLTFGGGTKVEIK as well.
**Result** 1
